Measured quantity: melting point (°C)

{"Compound": "COc1cc2c(-c3cc4c(Cl)ccnc4[nH]3)cn(CCN3CCOCC3)c2cc1OC [Example 99]", "melting point [°C]": 240}
{"Compound": "COc1cc2c(-c3cc4c(Cl)ccnc4[nH]3)cn(CCN3CCC(CCO)CC3)c2cc1OC [Example 100]", "melting point [°C]": 200}
{"Compound": "COc1cc2c(-c3cc4c(Cl)ccnc4[nH]3)cn(CCN3CCN(C)CC3)c2cc1OC [Example 101]", "melting point [°C]": 192}
